- target_under_test: T1, SARS-CoV-2 Spike Glycoprotein S1 (subunit 1) (SARS-CoV-2, UniProt P0DTC2 16-685)
- T1 construct: also called S1 Monomer; SARS-CoV-2 S1
- procedure_details: screening phage ELISA, mean
So I've got a bunch of binders here, and I need their ELISA (Avg) values.
Numbers only.

>  <binder>
1-8 (antibody, V domains shown) VH: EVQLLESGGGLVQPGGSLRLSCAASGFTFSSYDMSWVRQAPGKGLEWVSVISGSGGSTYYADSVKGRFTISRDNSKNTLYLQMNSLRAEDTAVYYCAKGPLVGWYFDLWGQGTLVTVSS VL: QSALTQPASVSGSPGQSITISCTGTSNDVGSYNLVSWYQQHPGKAPKLMIYEGSKRPSGVSNRFSGSKSGNTASLTISGLQAEDEADYYCCSYAGSRYVVFGGGTKLTVL

>  <value>
19.3

$$$$

Give ELISA (Avg) for each of the items listed below.
1. 1-31 (antibody, V domains shown) VH: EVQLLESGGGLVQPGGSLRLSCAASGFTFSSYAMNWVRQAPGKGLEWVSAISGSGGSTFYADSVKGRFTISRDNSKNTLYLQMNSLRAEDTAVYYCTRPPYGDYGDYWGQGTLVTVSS VL: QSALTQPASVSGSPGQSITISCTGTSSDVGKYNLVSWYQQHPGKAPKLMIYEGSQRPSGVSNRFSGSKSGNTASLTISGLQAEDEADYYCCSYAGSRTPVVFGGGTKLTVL
2. 1-5 (antibody, V domains shown) VH: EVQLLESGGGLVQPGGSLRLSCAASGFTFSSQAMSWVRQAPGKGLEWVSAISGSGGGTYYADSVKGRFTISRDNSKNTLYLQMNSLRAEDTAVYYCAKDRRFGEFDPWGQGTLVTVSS VL: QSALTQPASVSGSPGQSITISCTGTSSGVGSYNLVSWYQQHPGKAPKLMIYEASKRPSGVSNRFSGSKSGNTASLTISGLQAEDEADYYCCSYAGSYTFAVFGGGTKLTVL
3. 1-2 (antibody, V domains shown) VH: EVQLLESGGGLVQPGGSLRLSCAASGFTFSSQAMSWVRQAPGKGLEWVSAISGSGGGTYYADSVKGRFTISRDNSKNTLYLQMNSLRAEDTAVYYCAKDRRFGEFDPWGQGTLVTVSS VL: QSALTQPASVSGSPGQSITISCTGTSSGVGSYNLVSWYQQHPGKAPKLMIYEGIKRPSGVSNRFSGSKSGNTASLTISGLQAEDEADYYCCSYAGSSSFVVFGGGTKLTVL

OUT:
20.7
20.6
24.2

IN: Given the entry 1-4 (antibody, V domains shown) VH: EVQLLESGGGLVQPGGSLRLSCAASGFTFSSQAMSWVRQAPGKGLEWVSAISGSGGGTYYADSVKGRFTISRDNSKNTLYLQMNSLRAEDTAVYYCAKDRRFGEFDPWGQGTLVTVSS VL: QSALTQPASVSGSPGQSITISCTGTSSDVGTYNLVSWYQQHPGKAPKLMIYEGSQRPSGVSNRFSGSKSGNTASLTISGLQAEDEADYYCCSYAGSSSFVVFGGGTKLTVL , report its measured ELISA (Avg).
OUT: 20.6

The measured values listed here are drawn from patent US20210395344A1.
